I'd appreciate it if you could supply TGI values for the items below.
# System: MOLT-4 leukemia
# Test Name: NCI tumour cell line growth inhibition, 48 h

Prompt: Would you mind telling me what TGI value was observed for `COc1cc2c(cc1OCCCN1CCN(CCCn3c4ccccc4c4ccccc43)CC1)N=C[C@@H]1CCCN1C2=O` ?
Completion: 0.257 µM

Prompt: # iterate: CC(C)S1=C2C(=O)CC(C)(C)CC2=Nc2ccccc21 (stereo not given)
Completion: > 100 µM

Prompt: Now consider `O=C(Nc1cccc(C(F)(F)F)c1)Nc1cc(S(=O)(=O)NC2CC2)ccc1-c1ccsc1` .
Completion: 9.53 µM

Prompt: Can you check `COc1ccc(-c2cc(-c3ccc(Nc4ccnc5cc(C(F)(F)F)ccc45)cc3)nc(N)c2C#N)c2ccccc12` next?
Completion: > 100 µM

Prompt: Follow-up item: `CN(C)c1ccc(/C=C2\CCCCCC2=O)cc1`
Completion: > 100 µM

Prompt: Same question, `CCc1c[nH]c2ncnc(N3CC[C@](N)(CNC(=O)c4ccc(F)cc4F)C3)c12` this time
Completion: 46.2 µM

Prompt: Next: `CO[C@@H](c1ccccc1)[C@H](O)[C@@](O)(c1ccccc1)P(=O)(OC)OC`
Completion: > 100 µM

Prompt: Another compound: `CN(C)C(=O)c1cc2cnc(Nc3ccc(N4CCNCC4)cn3)nc2n1C1CCCC1`
Completion: 34.5 µM

Prompt: Now the compound `C/C(=N\NC(=O)c1ccncc1)c1ccccc1O`
Completion: > 100 µM

Prompt: Also `CCCCSC1=N/C(=C\c2ccccc2O)C(Cl)=N1` , if possible.
Completion: > 100 µM
